Recorded values, source the supplement of paper PMC6555819.

- System: PPARg:RXRa 30nM:10nM, anti-RXR (NR concentration 30 nM, RXRa partner concentration 10 nM)
- assayDetails: PBM binding z-score (relative to random genomic background probes); higher = stronger binding; sequences stand for … in GC…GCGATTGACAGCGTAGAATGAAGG
Decide by PBM binding z-score: equal to or exceeding 0.6 means 1, less means -1.

Inquiry: Hi, just wondering whether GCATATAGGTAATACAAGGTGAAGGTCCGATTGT shows PBM binding z-score of 0.6 or higher.
Reply text: -1

Inquiry: Also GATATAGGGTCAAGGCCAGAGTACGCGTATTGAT , if possible.
Reply text: 1

Inquiry: Field entry: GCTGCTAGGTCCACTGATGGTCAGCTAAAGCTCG
Reply text: -1

Inquiry: Field entry: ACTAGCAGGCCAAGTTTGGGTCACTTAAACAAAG
Reply text: -1

Inquiry: // next record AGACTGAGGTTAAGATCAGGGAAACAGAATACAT
Reply text: 1

Inquiry: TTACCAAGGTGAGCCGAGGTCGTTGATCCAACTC , same question.
Reply text: -1

Inquiry: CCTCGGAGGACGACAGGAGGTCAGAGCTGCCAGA , same question.
Reply text: -1

Inquiry: # iterate: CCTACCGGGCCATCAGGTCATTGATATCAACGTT
Reply text: -1

Inquiry: Next sequence: CCTACTGGGCCGTCAGGTCATTGATATCAACGTT
Reply text: -1

Inquiry: Let us now turn to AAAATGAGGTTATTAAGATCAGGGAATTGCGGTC
Reply text: -1

Inquiry: Proceed to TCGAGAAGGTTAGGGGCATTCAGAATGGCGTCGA
Reply text: 1

Inquiry: Also need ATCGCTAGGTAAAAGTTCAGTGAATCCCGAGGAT , thanks.
Reply text: 1

###

- Test system: LXRb:RXRa (NR concentration 270 nM, RXRa partner concentration 90 nM)
- assayDetails: PBM binding z-score (relative to random genomic background probes); higher = stronger binding; sequences stand for … in GC…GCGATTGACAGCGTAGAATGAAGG
Classification by PBM binding z-score follows these ranges: bottom range (below 0.8), center range (0.8 to below 2), top range (2 or more)

Inquiry: Which category does the recorded PBM binding z-score put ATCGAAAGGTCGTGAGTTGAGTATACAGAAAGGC in?
Reply text: top range

Inquiry: Same for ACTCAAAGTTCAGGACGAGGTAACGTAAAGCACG
Reply text: top range

Inquiry: Similarly, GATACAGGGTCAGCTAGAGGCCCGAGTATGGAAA ?
Reply text: center range

Inquiry: Please answer likewise for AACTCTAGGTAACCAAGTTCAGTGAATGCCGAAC
Reply text: bottom range

Inquiry: Can you handle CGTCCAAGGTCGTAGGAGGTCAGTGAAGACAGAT next?
Reply text: top range

Inquiry: Query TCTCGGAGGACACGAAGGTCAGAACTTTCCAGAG next
Reply text: center range

Inquiry: And for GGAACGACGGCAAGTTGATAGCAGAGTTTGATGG ?
Reply text: bottom range

Inquiry: Now try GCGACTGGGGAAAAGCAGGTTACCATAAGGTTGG .
Reply text: bottom range

Inquiry: Next sequence: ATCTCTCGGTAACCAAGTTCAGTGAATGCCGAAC
Reply text: bottom range

Inquiry: Now try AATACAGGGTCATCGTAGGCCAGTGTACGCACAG .
Reply text: top range

Inquiry: And the next one, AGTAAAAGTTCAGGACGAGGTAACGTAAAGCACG ?
Reply text: center range

Inquiry: Can you handle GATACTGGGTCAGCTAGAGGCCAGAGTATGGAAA next?
Reply text: bottom range

Inquiry: Now give it for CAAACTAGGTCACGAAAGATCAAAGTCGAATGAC too.
Reply text: top range

Inquiry: Same read-out for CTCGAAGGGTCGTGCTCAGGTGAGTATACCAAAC ?
Reply text: center range

Inquiry: Same read-out for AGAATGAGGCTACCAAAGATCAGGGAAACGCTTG ?
Reply text: bottom range

Inquiry: Another sequence to check: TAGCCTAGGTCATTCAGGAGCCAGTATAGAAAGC
Reply text: top range

Inquiry: // repeat for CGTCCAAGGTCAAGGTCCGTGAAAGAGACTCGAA and report
Reply text: top range

Inquiry: Try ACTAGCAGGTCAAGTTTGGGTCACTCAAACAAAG next.
Reply text: top range

Inquiry: Further, for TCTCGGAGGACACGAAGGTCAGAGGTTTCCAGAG ?
Reply text: center range

Inquiry: What do you get for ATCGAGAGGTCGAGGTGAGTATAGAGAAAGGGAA ?
Reply text: center range

Inquiry: What would you report for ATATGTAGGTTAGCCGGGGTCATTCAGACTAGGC ?
Reply text: top range

Inquiry: Request: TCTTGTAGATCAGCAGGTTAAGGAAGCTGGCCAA
Reply text: bottom range

Inquiry: Next up: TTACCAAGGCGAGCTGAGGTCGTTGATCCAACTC
Reply text: bottom range
